# STUDY_TARGET: ADP-induced human platelet aggregation (Homo sapiens, UniProt P05106+P08514)
# Sequence (P08514 32-1039): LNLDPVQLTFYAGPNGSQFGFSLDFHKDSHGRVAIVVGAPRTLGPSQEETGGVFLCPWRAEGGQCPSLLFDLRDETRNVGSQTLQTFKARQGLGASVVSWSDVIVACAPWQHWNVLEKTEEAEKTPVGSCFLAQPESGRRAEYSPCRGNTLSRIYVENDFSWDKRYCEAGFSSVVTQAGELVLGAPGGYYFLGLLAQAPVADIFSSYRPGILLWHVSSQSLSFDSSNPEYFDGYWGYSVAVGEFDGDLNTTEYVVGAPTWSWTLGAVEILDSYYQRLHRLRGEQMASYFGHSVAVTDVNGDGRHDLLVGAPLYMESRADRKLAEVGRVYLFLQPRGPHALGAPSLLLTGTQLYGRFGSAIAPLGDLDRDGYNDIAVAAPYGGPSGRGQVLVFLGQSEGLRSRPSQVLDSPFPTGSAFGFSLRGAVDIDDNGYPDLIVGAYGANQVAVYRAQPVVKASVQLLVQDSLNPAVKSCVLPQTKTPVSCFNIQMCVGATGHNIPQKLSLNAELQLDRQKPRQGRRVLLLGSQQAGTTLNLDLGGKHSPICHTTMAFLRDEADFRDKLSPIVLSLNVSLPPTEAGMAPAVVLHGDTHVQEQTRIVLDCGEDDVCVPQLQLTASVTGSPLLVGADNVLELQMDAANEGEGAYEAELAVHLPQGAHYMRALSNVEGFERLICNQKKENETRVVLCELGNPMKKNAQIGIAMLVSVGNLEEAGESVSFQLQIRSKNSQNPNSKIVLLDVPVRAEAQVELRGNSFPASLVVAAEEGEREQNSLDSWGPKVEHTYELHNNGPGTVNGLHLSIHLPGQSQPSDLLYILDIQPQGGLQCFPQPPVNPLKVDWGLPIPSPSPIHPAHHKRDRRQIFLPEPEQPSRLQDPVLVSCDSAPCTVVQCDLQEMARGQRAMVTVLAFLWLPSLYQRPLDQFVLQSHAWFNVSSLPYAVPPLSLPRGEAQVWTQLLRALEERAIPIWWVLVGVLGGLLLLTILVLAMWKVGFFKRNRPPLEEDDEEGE
# Sequence (P05106 27-788): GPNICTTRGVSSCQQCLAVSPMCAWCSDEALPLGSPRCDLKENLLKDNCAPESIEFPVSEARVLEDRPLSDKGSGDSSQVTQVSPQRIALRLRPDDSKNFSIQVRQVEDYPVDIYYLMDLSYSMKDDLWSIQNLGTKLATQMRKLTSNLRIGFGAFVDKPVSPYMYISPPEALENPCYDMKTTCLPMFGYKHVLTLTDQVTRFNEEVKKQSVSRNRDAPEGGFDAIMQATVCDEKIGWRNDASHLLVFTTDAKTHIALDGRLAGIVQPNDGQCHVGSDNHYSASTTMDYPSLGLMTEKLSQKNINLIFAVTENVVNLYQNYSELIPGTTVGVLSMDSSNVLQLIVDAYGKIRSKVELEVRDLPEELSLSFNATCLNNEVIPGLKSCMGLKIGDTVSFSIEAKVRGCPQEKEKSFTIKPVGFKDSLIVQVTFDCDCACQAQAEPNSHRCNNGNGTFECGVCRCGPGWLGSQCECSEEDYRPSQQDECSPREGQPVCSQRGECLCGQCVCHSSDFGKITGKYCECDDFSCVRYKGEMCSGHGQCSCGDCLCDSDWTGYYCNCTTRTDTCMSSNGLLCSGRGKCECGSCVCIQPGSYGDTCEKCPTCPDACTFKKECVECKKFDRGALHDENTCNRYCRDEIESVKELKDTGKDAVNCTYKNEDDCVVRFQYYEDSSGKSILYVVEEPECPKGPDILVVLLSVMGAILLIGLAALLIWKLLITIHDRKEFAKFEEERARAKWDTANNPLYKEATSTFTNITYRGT
# ASSAY_INFO: standard aggregation inhibition assay (ADP-induced human platelet aggregation)
# Format: cell-based
# CONDITION_LABEL: PAI activity, Example 15; read-out: Appr.IC20
Where a SMILES comes first, the peptide text is derived from it. Bridges are numbered along the chain shown (N, C = ends). [ ]: non-standard residue; d: D form. hArg = N=C(N)NCCCC[C@H](N)C(=O)O; NMeL = CN[C@@H](CC(C)C)C(=O)O; Mpa = O=C(O)CCS
MEASURED_PROPERTY: IC20 (nM)
Response body: numeric value in nM, unit text excluded.

COMPOUND	STUDY_TARGET	IC20 / nM
C[C@@H]1NC(=O)[C@@H]2CCCN2C(=O)[C@H](Cc2c[nH]c3ccccc23)NC(=O)[C@H](CC(=O)O)NC(=O)CNC(=O)[C@H](CCCCNC(=N)N)NC(=O)CCSSC[C@@H](C(N)=O)NC1=O [PAI 93, Mpr-Har-G-D-W-P-A-C-NH2] ([Mpa][hArg]GDWPAC-NH2; disulfide 1-8)	ADP-induced human platelet aggregation (Homo sapiens, UniProt P05106+P08514)	3330

IN: Report IC20 under test system ADP-induced human platelet aggregation (Homo sapiens, UniProt P05106+P08514) for CC(C)C[C@H]1C(=O)N[C@@H](CCCCNC(=N)N)C(=O)NCC(=O)N[C@@H](CC(=O)O)C(=O)N[C@@H](Cc2c[nH]c3ccccc23)C(=O)N2CCC[C@H]2C(=O)N[C@H](C(N)=O)CSSCCC(=O)N1C [PAI 88, Mpr-(N-Me-Leu)-Har-G-D-W-P-C-NH2] ([Mpa][NMeL][hArg]GDWPC-NH2; disulfide 1-8) .
OUT: 840

IN: Supply IC20 measured with ADP-induced human platelet aggregation (Homo sapiens, UniProt P05106+P08514) for CC(C)[C@@H]1NC(=O)CCSSC[C@@H](C(N)=O)NC(=O)[C@@H]2CCCN2C(=O)[C@H](Cc2c[nH]c3ccccc23)NC(=O)[C@H](CC(=O)O)NC(=O)CNC(=O)[C@H](CCCCNC(=N)N)NC1=O [PAI 91, Mpr-V-Har-G-D-W-P-C-NH2] ([Mpa]V[hArg]GDWPC-NH2; disulfide 1-8) .
OUT: 350
